Sourced from ChEMBL document CHEMBL1201861

Tested on: HCC1569;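 also: growth inhibition of human HCC1569 cells, read out with a cell viability assay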
Assay comment: cells
Type: functional, cell-based
Experimental parameters: Homo sapiens
Description: SANGER: Inhibition of human HCC1569 cell growth in a cell viability assay.
Reported property: IC50 (nM)
Write the number in nM without appending the unit.

N#C/C(=C1/Nc2ccccc2S1)c1ccnc(NCCc2cccnc2)n1: 1960

Please turn your attention to the following entry.
# get_value(readout='IC50', item= C/C=C(/C)C(=O)O[C@H]1C(C)=C2[C@H]([C@@H]1OC(=O)CCCCCCC)[C@@](C)(OC(C)=O)C[C@H](OC(=O)CCC)[C@@]1(O)[C@H]2OC(=O)[C@@]1(C)O )
17.9

###

Tested on: KU812 cell line
Assay comment: cells
Assay type: functional, cell-based
Experimental parameters: Homo sapiens
Description: SANGER: Inhibition of human KU812 cell growth in a cell viability assay.
Known pIC50 of a selection of compounds
The value called pIC50 is obtained by taking minus log10 of the concentration in mol/L.

The following compounds have reported results that may help.
COc1cc(C)c(Sc2cnc(NC(=O)c3ccc(CNC(C)C(C)(C)C)cc3)s2)cc1C(=O)N1CCN(C(C)=O)CC1 (centres undefined): 5.05
CC[C@]1(O)C[C@@H]2CN(CCc3c([nH]c4ccccc34)[C@@](C(=O)OC)(c3cc4c(cc3OC)N(C)[C@H]3[C@@](O)(C(=O)OC)[C@H](OC(C)=O)[C@]5(CC)C=CCN6CC[C@]43[C@@H]65)C2)C1: 7.77

Please turn your attention to the following entry.
# get_value(readout='pIC50', item= CCNC(=O)c1noc(-c2cc(C(C)C)c(O)cc2O)c1-c1ccc(CN2CCOCC2)cc1 )
7.43

###

Known IC50 of a selection of molecules
System: BB30-HNC;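 also: growth inhibition of the cultured cell line, read out by a cell viability assay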
Assay comment: cells
Type: functional, cell-based
Experimental parameters: Homo sapiens
Description: SANGER: Inhibition of human BB30-HNC cell growth in a cell viability assay.
Write the number in nM without appending the unit.

The following molecules have reported results that may help.
CO[C@@]12[C@H](COC(N)=O)C3=C(C(=O)C(C)=C(N)C3=O)N1C[C@@H]1N[C@@H]12 [MITOMYCIN]: 30.6
CCNC(=O)c1noc(-c2cc(C(C)C)c(O)cc2O)c1-c1ccc(CN2CCOCC2)cc1 [LUMINESPIB]: 9.52
CCNc1cc(N[C@H]2CC[C@@H](O)CC2)nc(Nc2ccc3c(ccn3Cc3ccccc3)c2)n1: 4600
Fc1cc(-c2cc[nH]/c(=N/c3ccc(-n4cnc(N5CCOCC5)n4)cc3)n2)cc(N2CCOCC2)c1: 122

Please turn your attention to the following entry.
# get_value(readout='IC50', item= CC(C)=CC[C@@H](O)C1=CC(=O)c2c(O)ccc(O)c2C1=O [SHIKONIN] )
243

###

Test system: TCC-SUP
Assay comment: cells
Assay type: functional, cell-based
Experimental parameters: Homo sapiens
Description: SANGER: Inhibition of human TCCSUP cell growth in a cell viability assay.
Known pIC50 of a selection of compounds
The value called pIC50 is obtained by taking minus log10 of the concentration in mol/L.

The following compounds have reported results that may help.
CO[C@@]12[C@H](COC(N)=O)C3=C(C(=O)C(C)=C(N)C3=O)N1C[C@@H]1N[C@@H]12 [MITOMYCIN]: 6.32
C/C=C(/C)C(=O)O[C@H]1C(C)=C2[C@H]([C@@H]1OC(=O)CCCCCCC)[C@@](C)(OC(C)=O)C[C@H](OC(=O)CCC)[C@@]1(O)[C@H]2OC(=O)[C@@]1(C)O [THAPSIGARGIN]: 7.29

Please turn your attention to the following entry.
# get_value(readout='pIC50', item= C[C@]12O[C@H](C[C@]1(O)CO)n1c3ccccc3c3c4c(c5c6ccccc6n2c5c31)CNC4=O [LESTAURTINIB] )
5.73
